System: RSV (Long)
Experiment: RSV cytopathic effect (CPE)-based viral replication assay
Assay type: cell-based, respiratory syncytial virus (RSV)
Conditions: human respiratory syncytial virus, HEp-2, 72 h, HEp-2 cells infected with RSV Long at MOI 0.015; 3 days at 37° C.; cell viability by CellTiter-Glo luminescence; read-out: EC50 (nm)
Measurement kind: log10 of EC50 (log10 of the value in nM)
Response schema: value (number) is log10 of EC50 in units of nM.

| Compound | Target system | log10 of EC50 |
| --- | --- | --- |
| COC(=O)N1CCC2(CC1)C(=O)N(Cc1ncc3cc(Cl)ccc3c1-c1cccnc1)c1cnccc12 | RSV (Long) | 0.20 |
| CC1(OC(=O)N2CC3(C2)C(=O)N(Cc2ncc4ccccc4c2-c2ccc(C#N)nc2)c2ccccc23)CC1 [Example 91b] | RSV (Long) | -0.40 |
| CS(=O)(=O)N1CCC2(CC1)C(=O)N(Cc1ncc3ccccc3c1-c1ccc(C#N)nc1)c1cnccc12 | RSV (Long) | 0.41 |

Provide each entry's log10 of EC50 from the list below.
1. COC(=O)N1CC2(C1)C(=O)N(Cc1ncc3ccccc3c1-c1ccc(NS(C)(=O)=O)cc1)c1ccccc12
2. N#Cc1ccc(-c2c(CN3C(=O)C4(CN(C(N)=O)C4)c4ccccc43)ncc3ccccc23)cn1

Reply text:
1: -0.07; 2: 0.48

# batch size: 7; output log10 of EC50 per entry
1. NC(=O)c1ccc(-c2c(CN3C(=O)C4(CCN(C(=O)[C@@H]5CC(F)(F)CN5)CC4)c4ccncc43)ncc3ccccc23)cn1
2. CN(C)C(=O)c1ccc(-c2c(CN3C(=O)C4(CN(C(=O)C5(N)CC5)C4)c4ccccc43)ncc3ccccc23)cn1 [Example 121b]
3. NC1(C(=O)N2CCC3(CC2)C(=O)N(Cc2ncc4ccccc4c2-c2cn[nH]c2)c2cnccc23)CC1
4. CC(=O)N1CCC2(CC1)C(=O)N(Cc1ncc3ccccc3c1-c1cccnc1)c1cnccc12 [Example 146b]
5. N#Cc1ccc(-c2c(CN3c4ccccc4[C@]4(C[C@@H](O)C4)C3=O)ncc3ccccc23)cn1
6. CN1CCN(Cc2ccc3c(CCCCO)c(Cn4c(=O)n(C5CC5)c5ccncc54)ncc3c2)CC1 [Example 43j]
7. NC1(C(=O)N2CCC3(CC2)C(=O)N(Cc2ncc4ccccc4c2-c2ncco2)c2cnccc23)CC1

Reply text:
1.32
0.38
0.76
0.45
0.95
3.40
2.84

---

Test system: RSV (Long)
Assay: RSV cytopathic effect (CPE)-based viral replication assay
Type: cell-based, respiratory syncytial virus (RSV)
Settings: human respiratory syncytial virus, HEp-2, 72 h, HEp-2 cells infected with RSV Long at MOI 0.015; 3 days at 37° C.; cell viability by CellTiter-Glo luminescence; read-out: EC50 (nm)
Task for the reader: assign each of the following compounds its reported EC50.
One number for each entry, in nM.

Worked examples follow.
| Compound | Measurement kind | Unit name | Reported result |
| --- | --- | --- | --- |
| O=c1n(Cc2ncc3ccccc3c2CCCCO)c2cnccc2n1C1CN(S(=O)(=O)C2CC2)C1 | EC50 | nM | 33 |
| CC1(n2c(=O)n(Cc3ncc4ccccc4c3-c3ccc(C#N)nc3)c3ccccc32)CC1 [Example 90b] | EC50 | nM | 5.1 |
| COC(=O)N1CCC2(CC1)C(=O)N(Cc1ncc3ccccc3c1-c1ccc(C#N)cc1)c1cnccc12 [Example 12b] | EC50 | nM | 10 |

Shifting focus to the compound that follows.
Inquiry: What value of EC50 has been recorded for this entry: CS(=O)(=O)N1CC2(C1)C(=O)N(Cc1ncc3ccccc3c1-c1cc(F)cc(F)c1)c1ccccc12
Reply text: 5.6

---

Tested on: RSV (Long)
Experiment: RSV cytopathic effect (CPE)-based viral replication assay
Assay type: cell-based, respiratory syncytial virus (RSV)
Details: human respiratory syncytial virus, HEp-2, 72 h, HEp-2 cells infected with RSV Long at MOI 0.015; 3 days at 37° C.; cell viability by CellTiter-Glo luminescence; read-out: EC50 (nm)
Method: Example A: RSV Cytopathic Effect Compounds of the invention are initially tested in a cytopathic effect (CPE)-based viral replication assay using immortalized cells and a laboratory strain of RSV (Long). […] For the CPE assay, cells are infected at a Multiplicity of Infection (MOI) of 0.015 using 20 μL of RSV Long (ATCC) diluted in assay media. […] Cell viability is evaluated with the addition of 10 μL of CellTiter-Glo (ProMega). Luminescence is measured using an EnVision plate reader (Perkin Elmer). […]
For each entry below, report its EC50 value.
One number for each entry, in nM.

| Compound | Unit name | EC50 |
| --- | --- | --- |
| NCC(=O)N1CCC2(CC1)C(=O)N(Cc1ncc3ccccc3c1-c1cccnc1)c1cnccc12 [Example 143] | nM | 10 |
| CC1(S(=O)(=O)N2CCC3(CC2)C(=O)N(Cc2ncc4ccccc4c2CCCCO)c2cnccc23)CC1 [Example 54] | nM | 6 |
| NC1(C(=O)N2CC3(C2)C(=O)N(Cc2ncc4ccccc4c2-c2ccc(S(N)(=O)=O)nc2)c2ccccc23)CC1 [Example 124] | nM | 9.8 |

Now consider a different compound.
Inquiry: Recorded EC50 of NCc1ccc2c(CCCCO)c(Cn3c(=O)n(C4CC4)c4ccncc43)ncc2c1 [Example 26] , please.
Reply text: 5.9

---

Tested on: RSV (Long)
Experiment: RSV cytopathic effect (CPE)-based viral replication assay
Format: cell-based, respiratory syncytial virus (RSV)
Conditions: human respiratory syncytial virus, HEp-2, 72 h, HEp-2 cells infected with RSV Long at MOI 0.015; 3 days at 37° C.; cell viability by CellTiter-Glo luminescence; read-out: EC50 (nm)
Note that class boundaries on EC50 are bottom end = under 2 nM, midrange = from 2 nM up to 20 nM, top end = 20 nM and over

Solved entries:
| Molecule | Assigned class |
| --- | --- |
| COC(=O)N1CCC2(CC1)C(=O)N(Cc1ncc3cc(Cl)ccc3c1-c1ccncc1)c1cnccc12 [Example 165b] | bottom end |
| CS(=O)(=O)N1CCC2(CC1)C(=O)N(Cc1ncc3ccccc3c1-c1cc[nH]c1)c1cnccc12 [Example 2023] | top end |
| NC1(CNC(=O)N2CC3(C2)C(=O)N(Cc2ncc4ccccc4c2-c2cncc(F)c2)c2ccccc23)CC1 [Example 2004] | midrange |
| CNC1(C(=O)N2CC3(C2)C(=O)N(Cc2ncc4ccccc4c2-c2ccc(C#N)nc2)c2ccccc23)CC1 [Example 63] | bottom end |
| CNC1(C(=O)N2CC3(C2)C(=O)N(Cc2ncc4ccccc4c2-c2ccc(S(N)(=O)=O)nc2)c2ccccc23)CC1 [Example 123b] | midrange |
| COC(=O)N1CCC(n2c(=O)n(Cc3ncc4ccccc4c3CCCCO)c3cncc(Cl)c32)CC1 [Example 15] | midrange |
| CNC1(C(=O)N2CCC3(CC2)C(=O)N(Cc2ncc4ccccc4c2-c2ccc(F)nc2)c2cnccc23)CC1 [Example 111c] | bottom end |
| CS(=O)(=O)c1ccc(-c2c(Cn3c(=O)n(C4CC4)c4ccncc43)ncc3ccccc23)cn1 [Example 70c] | midrange |
| NC1(C(=O)N2CCC3(CC2)C(=O)N(Cc2ncc4ccccc4c2-c2nccs2)c2cnccc23)CC1 [Example 2012] | top end |

Next molecule, please.
Inquiry: Record NCCCC(=O)N1CC2(C1)C(=O)N(Cc1ncc3ccccc3c1-c1cccnc1)c1ccccc12 [Example 151] — which class?
Reply text: midrange
